Test system: NCI/ADR-RES ovarian
Test: NCI tumour cell line growth inhibition, 48 h
I'd appreciate it if you could supply GI50 values for the items below.

structure.smiles: C1=C\COCc2cc(ccc2OCCN2CCCC2)Nc2nccc(n2)-c2cccc(c2)COC/1
study.system: NCI/ADR-RES ovarian
GI50: 2.77 µM
--
structure.smiles: COc1cc(C(=O)N2CCN(c3ncccn3)CC2)c(N)cc1OCc1ccccc1
study.system: NCI/ADR-RES ovarian
GI50: > 100 µM
--
structure.smiles: C#COc1cccc(Nc2c(C#N)cnc3ncc(NC(=O)CCl)cc23)c1
study.system: NCI/ADR-RES ovarian
GI50: > 62.5 µM
--
structure.smiles: CCn1c(=O)c2c(=O)c3c4c(oc3oc2c2ccccc21)C(=O)c1ccccc1C4=O
study.system: NCI/ADR-RES ovarian
GI50: 13.8 µM
--
structure.smiles: CCCCCOc1ccc(/C=N/Nc2cc(C)nc3ccc(Br)cc23)cc1
study.system: NCI/ADR-RES ovarian
GI50: 1.83 µM
--
structure.smiles: O=C1NC(=O)/C(=C\c2ccccc2)C2=C1CCCC2
study.system: NCI/ADR-RES ovarian
GI50: 7.54 µM

# input for lookup
Reported GI50 for "O=C1NC(=NCCc2cccc(Cl)c2)S/C1=C\c1ccc2ncccc2c1" was > 25 µM

###

Test system: NCI-H23 lung
Experiment: NCI tumour cell line growth inhibition, 48 h; in the data active = GI50 below about 0.43 µM; inactive = the rest
Tick one outcome: yes = active, no = inactive

Example results:
structure.smiles: C1=C\COCc2cc(ccc2OCCN2CCCC2)Nc2nccc(n2)-c2cccc(c2)COC/1
study.system: NCI-H23 lung
cat: no

structure.smiles: O[C@H](c1cc(C(F)(F)F)nc2c(C(F)(F)F)cccc12)[C@@H]1CCCCN1
study.system: NCI-H23 lung
cat: no

structure.smiles: COc1cc(C(=O)N2CCN(c3ncccn3)CC2)c(N)cc1OCc1ccccc1
study.system: NCI-H23 lung
cat: no

structure.smiles: COc1cc2c3c(n(CCCOC(=O)C(F)(F)F)c(=O)c2cc1OC)-c1cc2c(cc1C3=O)OCO2
study.system: NCI-H23 lung
cat: yes

structure.smiles: OCCCNc1nccc(-c2c(-c3ccc(F)cc3)nn3cc(C(F)(F)F)ccc23)n1
study.system: NCI-H23 lung
cat: no

Hi team, can someone confirm the assay call for "CN(CCO)c1ccc(N2Cc3ccccc3OC3=C2C(=O)c2c(O)ccc(O)c2C3=O)cn1" ?
yes

Hi team, can someone confirm the assay call for "COc1ccc(CCNC(=O)c2ccc(NC3=C(Cl)C(=O)N(Cc4ccccc4)C3=O)cc2)cc1OC" ?
no

Hi team, can someone confirm the assay call for "CCCCCOc1ccc(/C=N/Nc2cc(C)nc3ccc(Br)cc23)cc1" ?
no

###

Test system: MDA-MB-231 breast
Test: NCI tumour cell line growth inhibition, 48 h
Would you please tag the item t when its TGI is 40 µM or above, and f when it is below?

compound: O=C1c2cccc3cccc(c23)C(=O)N1CCCNCCCNCCCCNCCCNCCCN1C(=O)c2cccc3cccc(c23)C1=O
cat: f
//
compound: O=C(c1cccs1)N(C(=O)N1CCN(c2ccccc2)CC1)S(=O)(=O)c1ccccc1
cat: t
//
compound: Cc1nc2ccc(NC(=S)Nc3ccccc3)cc2c(=O)n1-c1ccccc1
cat: t

Moving on to the next compound.
Please indicate if the recorded TGI for CC(C)CC(NC(=O)C(CI)Cc1ccccc1)C(=O)Nc1ccccc1 (stereo not drawn) meets or exceeds 40 µM.
t

This collection of values is drawn from PubChem BioAssay (NCI).
